- target or system: Lp-PLA2 (Homo sapiens)
- Construct: aliquoted and thawed 40 μL of pooled human plasma was previously added; from tissue; host or cells: pooled human plasma
- Sequence (Q13093 22-441): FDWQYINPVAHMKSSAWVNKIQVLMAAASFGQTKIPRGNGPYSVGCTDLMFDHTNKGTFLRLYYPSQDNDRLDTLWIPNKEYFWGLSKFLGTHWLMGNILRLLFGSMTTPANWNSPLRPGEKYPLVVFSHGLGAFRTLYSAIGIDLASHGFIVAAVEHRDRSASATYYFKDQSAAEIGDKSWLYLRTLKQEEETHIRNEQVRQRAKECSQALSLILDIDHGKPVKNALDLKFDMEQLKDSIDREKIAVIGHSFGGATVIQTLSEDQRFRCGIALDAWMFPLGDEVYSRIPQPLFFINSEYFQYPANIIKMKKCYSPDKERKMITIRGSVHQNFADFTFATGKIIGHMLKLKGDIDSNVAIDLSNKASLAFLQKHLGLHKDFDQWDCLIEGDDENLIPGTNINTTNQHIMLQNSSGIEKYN
- method summary: Lipoprotein-associated phospholipase A2 (Lp-PLA2) human plasma assay (Thio-PAF assay)
- Assay type: biochemical
- conditions used: Lp-PLA2 human plasma assay (Thio-PAF), pooled human plasma, 30-min pre-incubation at room temperature
Hi there, I'd appreciate the recorded pIC50 for every entry that follows.
On this scale, pIC50 is minus log10 of a concentration expressed in M (mol/L).

Task item: Returns the measured pIC50 for the input compound. Input: "COc1c(NCc2ccc(F)c(F)c2)nc(=O)n2c1N1C[C@@H]3C[C@]1(CO3)C2"
Reply: 6.78

Task item: Returns the measured pIC50 for the input compound. Input: "O=c1nc(OCc2ccc(Oc3ccc(C(F)(F)F)nc3)c(F)c2)cc2n1CC13CCC(CC1)N23"
Reply: 8.07

Task item: Returns the measured pIC50 for the input compound. Input: "N#Cc1cc(COc2cc3n(c(=O)n2)CC24CC(CN32)C4)ccc1F"
Reply: 8.21

Task item: Returns the measured pIC50 for the input compound. Input: "N#Cc1cc(COc2cc3n(c(=O)n2)C[C@]24CO[C@H](CN32)C4)ccc1Oc1ccc(C(F)(F)F)cc1"
Reply: 8.19

Task item: Returns the measured pIC50 for the input compound. Input: "N#Cc1cc(COc2cc3n(c(=O)n2)C[C@]24CO[C@H](CN32)C4)ccc1F"
Reply: 8.28

Task item: Returns the measured pIC50 for the input compound. Input: CC12COCCN1c1cc(OCc3ccc(Oc4cc(C#N)cc(C(F)(F)F)c4)c(F)c3)nc(=O)n1C2 (stereo not drawn)
Reply: 8.31

Task item: Returns the measured pIC50 for the input compound. Input: "O=c1nc(OCc2ccc(Oc3cccc(C(F)(F)F)c3)c(F)c2)cc2n1CC13CCC(CC1)N23"
Reply: 8.30

Task item: Returns the measured pIC50 for the input compound. Input: "O=c1nc(OCCc2ccc(Oc3cccc(C(F)(F)F)c3)c(F)c2)cc2n1C[C@]13CO[C@H](CN21)C3"
Reply: 8.17

Task item: Returns the measured pIC50 for the input compound. Input: "N#Cc1cc(Oc2ccc(COc3nc(=O)n4c(c3F)N3C[C@@H]5C[C@]3(CO5)C4)cc2F)cc(C(F)(F)F)c1"
Reply: 8.32

Task item: Returns the measured pIC50 for the input compound. Input: CC12CCCCN1c1cc(OCc3cc(F)c(Oc4ccnc(C(F)(F)F)c4)c(F)c3)nc(=O)n1C2 (stereo not drawn)
Reply: 8.16

Task item: Returns the measured pIC50 for the input compound. Input: "O=c1nc(OCc2cc(F)c(F)c(F)c2)cc2n1CC13CCC(CC1)N23"
Reply: 7.80

Task item: Returns the measured pIC50 for the input compound. Input: "N#Cc1cc(COc2cc3n(c(=O)n2)CC24CC(CN32)C4)ccc1Oc1ccnc(C(F)(F)F)c1"
Reply: 8.40
